biological target: SIK2 (Homo sapiens, UniProt Q9H0K1); experiment: SIK2 Enzymatic Assay Version 1 (ADP Glo); type: biochemical; conditions: enzyme 0.6 nM, 160 μM ATP and 140 μM HDAC5tide (each 2× final concentration); 30 minutes pre-incubation, 4 hours; ADPGlo luminescence; read-out: SIK2 ADP Glo IC50 (μM) (Test Example 1)
Sequence (Q9H0K1 whole entry, species assumed): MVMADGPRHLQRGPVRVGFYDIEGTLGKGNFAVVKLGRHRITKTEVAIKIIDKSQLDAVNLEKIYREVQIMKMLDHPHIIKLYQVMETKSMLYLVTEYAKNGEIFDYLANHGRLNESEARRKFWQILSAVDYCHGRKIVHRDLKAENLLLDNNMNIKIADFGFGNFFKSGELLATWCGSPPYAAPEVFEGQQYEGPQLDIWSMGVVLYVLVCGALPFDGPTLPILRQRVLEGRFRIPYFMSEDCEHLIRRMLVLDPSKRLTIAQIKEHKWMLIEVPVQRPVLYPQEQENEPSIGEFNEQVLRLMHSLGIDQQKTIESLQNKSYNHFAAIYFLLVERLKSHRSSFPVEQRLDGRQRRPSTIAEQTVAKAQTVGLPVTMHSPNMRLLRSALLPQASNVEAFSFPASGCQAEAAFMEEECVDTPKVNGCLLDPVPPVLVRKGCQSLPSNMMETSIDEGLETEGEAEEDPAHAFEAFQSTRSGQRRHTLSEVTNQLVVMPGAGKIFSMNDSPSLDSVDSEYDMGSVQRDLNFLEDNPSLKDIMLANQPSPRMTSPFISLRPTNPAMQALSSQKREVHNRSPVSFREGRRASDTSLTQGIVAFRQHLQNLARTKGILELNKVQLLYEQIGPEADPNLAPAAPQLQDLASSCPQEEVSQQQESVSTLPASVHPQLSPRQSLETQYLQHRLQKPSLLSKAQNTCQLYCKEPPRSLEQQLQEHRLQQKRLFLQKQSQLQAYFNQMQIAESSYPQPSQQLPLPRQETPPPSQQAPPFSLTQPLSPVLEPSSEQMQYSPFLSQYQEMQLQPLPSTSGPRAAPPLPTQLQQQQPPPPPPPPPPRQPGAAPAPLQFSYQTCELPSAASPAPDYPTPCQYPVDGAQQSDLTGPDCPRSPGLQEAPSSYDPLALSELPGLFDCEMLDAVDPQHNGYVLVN
quantity.name: IC50
Field: value (include unit after the number)

Consider the molecule CN1CC2CN(c3cnc(C#N)cc3-c3ccn4nc(NC(=O)C5CC5)cc4c3)CC2C1 (stereo not shown) and give its measured IC50.
0.0134 µM

Consider the molecule N#Cc1cc(-c2ccn3nc(NC(=O)C4CC4)cc3c2)c(OC[C@H]2CNCCO2)cn1 and give its measured IC50.
0.00486 µM

Consider the molecule CC(=O)N1CCC(Oc2cnc(C#N)cc2-c2ccn3nc(NC(=O)C4CC4)cc3c2)C1 (single isomer, unassigned) [Example 56] and give its measured IC50.
0.0036 µM

Consider the molecule Cc1cc(-c2ccn3nc(NC(=O)C4CC4)cc3c2)c(OCC2(N)CCC2)cn1 and give its measured IC50.
0.00116 µM

Consider the molecule CO[C@H]1C[C@@H](Oc2cnc(C)cc2-c2ccn3nc(NC(=O)C4CC4)cc3c2)C1 and give its measured IC50.
0.0124 µM

Consider the molecule N#Cc1cc(-c2ccn3nc(NC(=O)C4CC4)cc3c2)c(OC[C@@H](O)C(F)(F)F)cn1 and give its measured IC50.
0.000912 µM

Consider the molecule CN1[C@@H]2CC[C@H]1C[C@@H](COc1cnc(C#N)cc1-c1ccn3nc(NC(=O)C4CC4)cc3c1)C2 and give its measured IC50.
0.00299 µM

Consider the molecule CN1CC[C@@H](COc2cnc(C#N)cc2-c2ccn3nc(Nc4ccncc4)cc3c2)C1 and give its measured IC50.
0.00951 µM

---

molecular target: SIK2 (Homo sapiens); assay: SIK2 Enzymatic Assay High Version 2 (High ATP); type: biochemical; conditions: enzyme 6 nM, 6 mM ATP and 400 μM HDAC5tide (each 2× final concentration); 30 minutes pre-incubation, 2 hours; ADP-Glo Max luminescence; read-out: SIK2 high ATP IC50 (μM) (Test Example 2)
Item-by-item account of log10 IC50
For clarity, the numbers are log10 values of IC50 expressed in µM.

In the examples that follow, each entry is paired with its recorded log10 IC50.
{"columns": ["compound", "assayed.target", "log10 IC50"],
 "data": [
  ["Cc1cc(-c2ccn3nc(Nc4cc(C)c(=O)n(C5CC5)n4)cc3c2)c(OC[C@H]2OCC[C@@H]2O)cn1", "SIK2 (Homo sapiens)", -2.77],
  ["Cc1cc(-c2ccn3nc(Nc4cc(C)nc(C)n4)cc3c2)c(OC[C@H](O)C2(C)CC2)cn1 (single isomer, unassigned)", "SIK2 (Homo sapiens)", -1.34],
  ["Cc1cc(-c2ccn3nc(Nc4cc(C)nc(C)n4)cc3c2)c(O[C@H]2CCOC(C)(C)C2)cn1 (single isomer, unassigned)", "SIK2 (Homo sapiens)", -1.00],
  ["Cc1cc(-c2ccn3nc(Nc4cc(C)c(=O)n(CC5CC5)n4)cc3c2)c(OCC(C)(C)O)cn1", "SIK2 (Homo sapiens)", -2.44],
  ["Cn1cc(Nc2cc3cc(-c4cc(OC(F)F)ncc4OCC(C)(C)C#N)ccn3n2)cn1", "SIK2 (Homo sapiens)", -2.64],
  ["Cc1cc(-c2ccn3nc(Nc4ccc(C)nn4)cc3c2)c(OCC(C)(C)O)cn1", "SIK2 (Homo sapiens)", -0.94]
]}

Consider the compound Cc1cc(Nc2cc3cc(-c4cc(C(F)(F)F)ncc4OC[C@@]45CN[C@@H](CO4)C5)ccn3n2)nc(C)n1 and give its measured log10 IC50.
-1.55

Values compiled from patent US20240158392A1.
